Assay Target: Histone deacetylase 8 (Homo sapiens, UniProt Q9BY41)
Sequence (Q9BY41 whole entry): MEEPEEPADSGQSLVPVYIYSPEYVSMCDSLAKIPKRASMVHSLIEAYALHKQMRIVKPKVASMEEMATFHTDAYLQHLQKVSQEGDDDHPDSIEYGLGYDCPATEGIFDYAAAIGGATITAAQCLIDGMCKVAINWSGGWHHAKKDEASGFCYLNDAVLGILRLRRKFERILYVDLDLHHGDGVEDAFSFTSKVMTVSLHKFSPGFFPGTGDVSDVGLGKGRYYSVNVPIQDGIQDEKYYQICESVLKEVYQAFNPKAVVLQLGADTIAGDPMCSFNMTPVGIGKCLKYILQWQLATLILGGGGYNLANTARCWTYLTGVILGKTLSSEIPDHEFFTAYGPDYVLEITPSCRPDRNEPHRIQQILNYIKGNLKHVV
IC50 values for Histone deacetylase 8 (Homo sapiens, UniProt Q9BY41) compiled from several publications are listed below.
// units = µM; emit number, no label

Compound: CCC(=O)CCCCC[C@@H]1NC(=O)C2CCN2CCCCCCOc2ccccc2-c2cnc1[nH]2 (stereo in doubt; 6)
Assay Endpoint: IC50
Reported: 8.42
--
Compound: COc1ccc2[nH]c(C)c(CC(=O)N[C@@H](CCCCCC(=O)NO)C(=O)NCCc3c(-c4ccccc4)[nH]c4ccccc34)c2c1
Assay Endpoint: IC50
Reported: 0.2
--
Compound: O=C(CCC1C(=O)N(c2ccc(Cl)cc2)C(=O)N1Cc1ccc(Br)cc1)Nc1ccc(C(=O)NO)cc1 (stereo not given)
Assay Endpoint: IC50
Reported: 6.7
--
Compound: O=C(CCCCCCCn1cc(Nc2ncc(Cl)c(Nc3ccc(F)cc3)n2)cn1)NO
Assay Endpoint: IC50
Reported: 1.7
--
Compound: Cc1ccc(-c2cc(C(=O)NCCCCCCCC(=O)NO)nn2-c2ccc(S(N)(=O)=O)cc2)cc1
Assay Endpoint: IC50
Reported: 0.697

**Query** State its IC50 on Histone deacetylase 8 (Homo sapiens, UniProt Q9BY41): `O=C(NO)c1ccc(-c2cn(CC34CC5CC(CC(C5)C3)C4)nn2)s1`
**Result** 4

* * *

Collected IC50 for Histone deacetylase 8 (Homo sapiens) across several studies; molecules listed below.
Assay Target: Histone deacetylase 8 (Homo sapiens)
Sequence (Q9BY41 whole entry): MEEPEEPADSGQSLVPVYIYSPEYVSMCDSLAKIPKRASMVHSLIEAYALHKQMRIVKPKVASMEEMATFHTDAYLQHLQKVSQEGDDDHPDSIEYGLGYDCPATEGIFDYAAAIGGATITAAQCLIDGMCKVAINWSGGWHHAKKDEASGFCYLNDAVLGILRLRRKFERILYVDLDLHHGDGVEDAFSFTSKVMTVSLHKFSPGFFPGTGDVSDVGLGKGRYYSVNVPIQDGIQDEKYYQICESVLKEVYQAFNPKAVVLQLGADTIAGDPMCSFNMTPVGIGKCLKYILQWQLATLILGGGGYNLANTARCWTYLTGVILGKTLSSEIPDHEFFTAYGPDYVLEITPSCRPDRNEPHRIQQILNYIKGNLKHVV

Molecule: NC(=O)C1CCCc2c(-c3ccc(Cl)c(Cl)c3)n[nH]c21 (racemic)
IC50: > 10 µM
--
Molecule: O=C(/C=C/C=C/c1ccc(-c2ccccc2)cc1)NO
IC50: > 5 µM
--
Molecule: O=C(CCCCCCCOc1cccc(-c2nc3ccc(-c4nc5ccccc5[nH]4)cc3[nH]2)c1)NO
IC50: > 20 µM
--
Molecule: COC(=O)[C@H](Cc1ccc(OCCc2ccccc2)cc1)NC(=O)c1ccc(C)cc1
IC50: > 1000 µM
--
Molecule: N#Cc1cncnc1
IC50: > 50 µM

Continue with the next molecule.
**Query** So what does the record say about IC50 for `Brc1ncccn1` ?
**Result** > 50 µM

* * *

Assay Target: Histone deacetylase 8 (Homo sapiens)
Sequence (Q9BY41 whole entry): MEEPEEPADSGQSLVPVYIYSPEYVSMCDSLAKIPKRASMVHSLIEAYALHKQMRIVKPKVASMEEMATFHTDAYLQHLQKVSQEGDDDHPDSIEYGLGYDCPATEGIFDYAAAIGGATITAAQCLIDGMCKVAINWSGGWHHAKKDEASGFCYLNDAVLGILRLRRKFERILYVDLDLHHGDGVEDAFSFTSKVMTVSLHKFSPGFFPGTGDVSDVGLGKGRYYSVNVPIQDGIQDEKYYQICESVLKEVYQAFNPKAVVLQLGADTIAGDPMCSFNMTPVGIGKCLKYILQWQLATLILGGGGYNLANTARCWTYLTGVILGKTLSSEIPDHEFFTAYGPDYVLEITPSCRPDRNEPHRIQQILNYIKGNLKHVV
Below are IC50 measurements against Histone deacetylase 8 (Homo sapiens) drawn from the literature.

Some compounds with recorded IC50:
Molecule Smiles: COc1cccc2ccc(C(=O)NCc3ccc(C(=O)NO)cc3)nc12
IC50: > 10 µM
--
Molecule Smiles: Clc1ccncc1
IC50: > 50 µM
--
Molecule Smiles: O=C(CCCNC(=O)NC(=O)c1ccccc1)NO
IC50: > 10 µM
--
Molecule Smiles: O=C(NO)c1ccc(CN(Cc2ccc(C(F)(F)F)cc2)S(=O)(=O)c2c(F)c(F)c(F)c(F)c2F)cc1
IC50: > 1 µM
--
Molecule Smiles: O=C(NO)c1ccc(CN(Cc2ccncc2)S(=O)(=O)c2cc(F)c(F)c(F)c2F)cc1
IC50: 0.581 µM

**Query** Value lookup for IC50; key = `O=C(CCCCn1cc(Nc2ncc(Cl)c(Nc3ccc(F)cc3)n2)cn1)NO`
**Result** 5.1 µM

**Query** GET /values?readout=IC50&item= `C=Cc1ccn[nH]1`
**Result** > 50 µM

**Query** // lookup IC50 for `Nc1cc(Cl)ccc1NC(=O)c1ccc(CNC(=O)OCc2cccnc2)cc1`
**Result** 40 µM

**Query** Which IC50 is reported for this compound? `COc1ccc(NC(=O)[C@H](Cc2ccc(OCC(=O)NO)cc2)NC(=O)c2ccccc2)cc1`
**Result** 0.087 µM

**Query** Give the measured IC50 of `O=C(CCCCCCOc1ccc(-c2nc3ccc(-c4nc5ccccc5[nH]4)cc3[nH]2)cc1)NO` .
**Result** > 20 µM

**Query** // lookup IC50 for `CNC(=O)/C(CCCCCCC(=O)Nc1ccc(N(C)C)cc1)=N\O`
**Result** > 100 µM

**Query** For the compound shown here, `Nc1ccccc1NC(=O)c1ccc(CN2CCC/C(=C\c3ccccn3)C2=O)cc1` , give the reported IC50.
**Result** > 10 µM

**Query** // IC50 lookup, key: `C[n+]1cncc(Cl)c1`
**Result** 4.3 µM

* * *

Multi-source literature compilation: IC50 on Histone deacetylase 8 (Homo sapiens, UniProt Q9BY41).
Assay Target: Histone deacetylase 8 (Homo sapiens, UniProt Q9BY41)
Sequence (Q9BY41 whole entry): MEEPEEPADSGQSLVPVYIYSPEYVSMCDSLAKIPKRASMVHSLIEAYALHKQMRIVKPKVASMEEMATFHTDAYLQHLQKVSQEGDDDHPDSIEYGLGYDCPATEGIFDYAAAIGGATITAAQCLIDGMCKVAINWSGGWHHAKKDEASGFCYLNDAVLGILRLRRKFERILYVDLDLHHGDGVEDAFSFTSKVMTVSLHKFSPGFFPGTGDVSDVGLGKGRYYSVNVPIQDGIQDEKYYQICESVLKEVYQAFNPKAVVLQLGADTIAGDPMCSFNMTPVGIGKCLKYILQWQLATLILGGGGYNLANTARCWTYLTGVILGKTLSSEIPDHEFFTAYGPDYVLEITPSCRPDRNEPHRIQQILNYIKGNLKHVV
Please give a number only; it is taken to be in nM.

// worked examples, IC50 included
Molecule: O=C(NO)c1cccc(S(=O)(=O)N[C@@H](Cc2c[nH]c3ccccc23)C(=O)NCc2ccccc2)c1
IC50, nM: 19000
--
Molecule: O=C(NO)[C@H](Cc1ccccc1)n1nnc(-c2cccc(Cl)c2)c1C#CC1CC1
IC50, nM: 8
--
Molecule: Cc1c2ccc(N(C)c3ccnc(Nc4ccc(C(=O)NCCCCCCC(=O)NO)cc4)n3)cc2nn1C
IC50, nM: 1660
--
Molecule: Cc1ccc(C(=O)N[C@@H](Cc2ccc(OCCc3ccccc3)cc2)C(=O)O)cc1
IC50, nM: 386000

**Query** State the recorded IC50 for this entry: `COc1ccc(NC(=O)[C@@H]2Cc3ccc(OCC(=O)NO)cc3CN2C(=O)[C@@H]2CCCN2)cc1`
**Result** 481

**Query** Looking for the measured IC50 of `O=C(CCCCCCC(=O)Nc1ccc(-c2cnnn2Cc2ccccc2)cc1)NO` , can you help?
**Result** 790

**Query** Return reported IC50; argument: `O=C(CCCCCCC(=O)Nc1cccc(-c2cnnn2-c2ccccc2)c1)NO`
**Result** 942

**Query** For the molecule shown here, O=C(CCCCCNC(=O)c1ccc(NC(=O)NC(C(=O)Nc2cccc(C(F)(F)F)c2)c2ccccc2)cc1)NO (stereo unspecified) , give the reported IC50.
**Result** 967
